- system tested: T1, ΔNp73β (Homo sapiens, UniProt O15350-9 1-450)
- T1 sequence: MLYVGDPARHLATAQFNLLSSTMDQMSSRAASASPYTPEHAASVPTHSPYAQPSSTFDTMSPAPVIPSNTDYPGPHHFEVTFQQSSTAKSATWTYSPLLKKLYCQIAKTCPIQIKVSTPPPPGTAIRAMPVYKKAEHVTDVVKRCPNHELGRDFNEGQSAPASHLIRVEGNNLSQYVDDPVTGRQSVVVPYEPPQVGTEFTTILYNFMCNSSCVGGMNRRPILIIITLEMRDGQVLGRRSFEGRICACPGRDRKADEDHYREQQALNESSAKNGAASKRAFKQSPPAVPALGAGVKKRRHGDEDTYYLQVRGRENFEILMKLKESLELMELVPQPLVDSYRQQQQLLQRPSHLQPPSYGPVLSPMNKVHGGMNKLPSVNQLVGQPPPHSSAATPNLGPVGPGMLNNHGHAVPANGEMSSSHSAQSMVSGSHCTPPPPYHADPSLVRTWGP
- experimental details: fluorescence anisotropy direct titration; 25 mM sodium phosphate (purification buffer pH 7.2), 225 mM NaCl, 10% v/v glycerol, 5 mM DTT, 0.2 mg/mL BSA, 22 C
- condition: protein: recombinant; tags: N-terminal 6xHis-lipoyl-TEV tag, cleaved; chain copies: 4; label: 5'-Alexa488
observable: Kd (nM)
Give just the number in nM; leave the unit off.

Notebook: Ref_Alexa488 (dsDNA) DNA 1: GGACATGTCCGGACATGTCC DNA 2: GGACATGTCCGGACATGTCC , Kd read as 55
